Measured values drawn from PubChem BioAssay (Tox21) for this set.

assay: qHTS assay to test for compound auto fluorescence at 590 nm (red) in HEK293 cell free culture (AID 720683); settings: cell-free medium autofluorescence, Ex540/Em590 red; series mostly up to 46 µM
Calls of active or inactive are those of the source. Calls follow the shape of the dose curve; as a rule, active = well fitted curve in the direction sought with a large enough effect in the repeat runs; inconclusive = weak or mixed curves; inactive = flat fitted curve, though single readings scatter.
MEASUREMENT TYPE: outcome

>>> endpoint_value("O=C1c2c(O)cccc2[C@H]([C@@H]2O[C@H](CO)[C@@H](O)[C@H](O)[C@H]2O)c2cc(CO)cc(O)c21")
"inactive"
>>> endpoint_value("Cc1c(N)nc([C@H](CC(N)=O)NC[C@H](N)C(N)=O)nc1C(=O)N[C@H](C(=O)N[C@H](C)[C@@H](O)[C@H](C)C(=O)N[C@H](C(=O)NCCc1nc(-c2nc(C(=O)NCCCCN=C(N)N)cs2)cs1)[C@@H](C)O)[C@@H](O[C@@H]1O[C@@H](CO)[C@@H](O)[C@H](O)[C@@H]1O[C@H]1O[C@H](CO)[C@@H](O)[C@H](OC(N)=O)[C@@H]1O)c1cnc[nH]1")
"inactive"

----------
test: qHTS assay to identify small molecule agonists of the estrogen related receptor (ERR) signaling pathway from Tox21 library (AID 1224849); conditions: ERR reporter cell line, ONE-Glo luciferase, 18 h; at 92.4 µM (top of the series) unless noted; also: nearly all actives have a fitted effect of over 15% in size
Calls of active or inactive are those of the source. The call rests on the fitted dose curve.
Possible outcomes: active, inactive

>>> group("O=S(=O)(c1ccc(OCc2ccccc2)cc1)c1ccccc1O")
"inactive"
>>> group("COc1cc(/C=C/C(=O)CC(=O)/C=C/c2ccc(O)c(OC)c2)ccc1O")
"inactive"
>>> group("Cn1ccnc1")
"inactive"
>>> group("O=[N+]([O-])c1ccc(O)c2ncccc12")
"inactive"
>>> group("Cc1cccc2c1ccc1ccccc12")
"inactive"
>>> group("O=c1[nH]cccc1O")
"inactive"
>>> group("O[Si](c1ccccc1)(c1ccccc1)c1ccccc1")
"inactive"
>>> group("CCN(CCC#N)c1ccc(N=Nc2ccc([N+](=O)[O-])cc2)cc1")
"active"
>>> group("COc1cccc(-c2ccc(/C=C\\CN3CCCCCC3)cc2Cl)c1")
"inactive"
>>> group("CN[C@H]1CC[C@@H](c2ccc(Cl)c(Cl)c2)c2ccc(S(N)(=O)=O)cc21")
"inactive"
>>> group("c1ccc(-c2ccc(C(c3ccccc3)n3ccnc3)cc2)cc1 (centres undefined)")
"inactive"
>>> group("CCc1cccc(CC)c1")
"inactive"
>>> group("CCCCCCCCSCc1cc(C)c(O)c(CSCCCCCCCC)c1")
"inactive"
>>> group("N#Cc1nc(Cl)c(Cl)c(Cl)c1Cl")
"inactive"
>>> group("C=C1C(CCl)(CCl)C2(Cl)C(Cl)C(Cl)C1(Cl)C2(Cl)Cl (centres undefined)")
"inactive"
>>> group("CC1(C)[C@H]2CC[C@]1(C)C(=O)C2")
"inactive"
>>> group("CCCCCN=C(N)N/N=C/c1c[nH]c2ccc(OC)cc12")
"inactive"
>>> group("Cc1cc(C)c(O)c(C(C)(C)C)c1")
"inactive"
>>> group("O=C1CCCCCCCCCCCCCC1")
"inactive"
>>> group("CC(C)C(=O)C(C)C")
"inactive"
>>> group("CCCCCCCCc1ccc(Nc2ccc(CCCCCCCC)cc2)cc1")
"inactive"
>>> group("CCCOC(=O)c1ccc(O)cc1")
"active"
>>> group("CN1CC[C@H](c2c(O)cc(O)c3c(=O)cc(-c4ccccc4Cl)oc23)[C@H](O)C1")
"inactive"
>>> group("C=Cc1ccncc1")
"inactive"
>>> group("Oc1ccc(C2(c3ccc(O)c(C4CCCCC4)c3)CCCCC2)cc1C1CCCCC1")
"inactive"
>>> group("CCCCCCCCOC(=O)c1cc(O)c(O)c(O)c1")
"inactive"
>>> group("Nc1cc([N+](=O)[O-])ccc1Cl")
"inactive"
>>> group("O=C(CCCCCCCCc1cccnc1)N1CCC(C=C(c2ccccc2)c2ccccc2)CC1")
"inactive"
>>> group("CCCCCCCCCCCCCCCCCCNC(=O)OC1CCN(C(=O)OC[C@H](COC(=O)N(Cc2cccc[n+]2CC)C(=O)c2ccccc2OC)OC)CC1")
"inactive"
